assay: qHTS for inhibitors of binding or entry into cells for Marburg Virus; conditions: Marburg virus pseudotyped entry inhibition, cell reporter; series mostly up to 37.8 µM
The whole screen tested about 300,000 compounds, of which about 5,400 (1.8%) were called active. About 28% were inconclusive and are not listed. Calls follow the shape of the full dose curve; tested in HEK293 cells. The list comes from a sample in which actives are over-represented; it also holds close analogues and randomly drawn compounds.
Pick from YES = active, NO = inactive when you respond.

Cn1c(=O)c2c(nc(NCCc3ccccc3)n2Cc2ccccc2Br)n(C)c1=O
NO
O=C(OCC(=O)N1CCN(C(=O)c2ccco2)CC1)c1c(Cl)cccc1Cl
NO
O=C(/C=C/c1ccc(F)cc1)NCCNC(=O)/C=C/c1ccc(F)cc1
NO
CN(C)CCCNC(=O)/C=C/c1ccc(OCc2c(F)cccc2Cl)cc1
YES
O=C(c1cccnc1)N(Cc1ccccc1)C(=O)c1cccnc1
NO
CC(=O)c1ccc(S(=O)(=O)N(C)CCCC(=O)N(C)Cc2ccccc2F)cc1
NO
Cc1nc(N)nc(Cl)c1CCC1OCCO1
NO
COc1ccc(C(O)(C2CCCCC2)C(CN2CCCC2)c2ccccc2)cc1 (centres undefined)
YES
CC[C@]1(O)C(=O)OCc2c1cc1n(c2=O)Cc2cc3ccccc3nc2-1
YES
CC(NC(=O)COC(=O)c1ccc2ccccc2n1)c1ccccc1 (centres undefined)
NO

Which result was noted for this compound in the test: Cc1ccccc1-n1cc(CNC(=O)C2CCC(=O)N(C3CC3)C2)cn1 (centres undefined) NO

Same read-out for CC1(C)C(C=C(Cl)Cl)C1C(=O)N(Cc1ccc(Cl)cc1)C1CCS(=O)(=O)C1 (centres undefined) ? YES

Lookup COc1ccc(NS(=O)(=O)c2ccc(C)c(C(=O)NCC(c3cccs3)N3CCOCC3)c2)cc1 (centres undefined) NO

Same question, COc1ccc(NS(=O)(=O)c2ccc(N3CCOCC3)c(NC(=O)c3ccccc3Br)c2)cc1 this time YES
